Tested on: HL-60(TB) leukemia
method_summary: NCI-60 one-dose screen, 48 h
run_conditions: 10 µM unless noted
Compounds without any hit were thinned out: in the full panel of roughly 83,000, 20% have a hit. Activity calls are given as the source filed them. How the source made its calls: active means growth percent below 10; inactive means the rest.
Your reply should match one of these outcome classes. True (active), False (inactive)

Solved entries:
{"columns": ["compound", "class_assignment"],
 "data": [
  ["CCNC(=O)Nc1nc2ccc(Oc3ccnc(C(=O)NC)c3)cc2s1", "False"],
  ["CC(=O)N1N=C(c2ccc(Nc3nc(Nc4ccccc4)nc(Nc4ccccc4)n3)cc2)CC1c1ccccc1 (stereo not given)", "False"],
  ["CNCCCn1c2c(c3ccc(F)cc3c1=O)C(=O)c1cc(OC)cnc1-2", "True"],
  ["Cc1nc(-n2[nH]c(=O)ccc2=O)sc1N=Nc1ccccc1", "False"],
  ["CC(C)(C)c1ccc(S(=O)(=O)Oc2ccc(NC(=O)C3CCCCC3)cc2)cc1", "False"],
  ["O=[N+]([O-])c1ccccc1CN1CCCCC1", "False"],
  ["OC(CBr)CCBr (stereo not given)", "False"],
  ["Cc1ccc(NC(=O)c2cc(NCc3cc(O)ccc3O)ccc2O)cc1", "False"]
]}

// outcome(item) with item = CC1(C)C(=O)/C(=C\c2ccco2)C[C@]2(C)[C@H]3CC[C@@H]4[C@@H](C(=O)/C=C/c5ccco5)CC[C@@]4(C)[C@]3(C)CC[C@@H]12
False

// outcome(item) with item = CSc1nn2c(-c3ccc4ccccc4c3)ccnc2c1C#N
False
